Data provenance is paper PMC2248166.

Biological target: HLA B*5802 (Homo sapiens, UniProt P01889, A329T/C349S/D201E/D98Y/E176V/E187L/E204Q/E69T/G107R/I218V/I90N/K202T/L105A/N104I/N87E/Q89R/Q94S/R106L/R155S/R180L/R86G/S101N/S121W/S35A/S48A/V127L/V306I/V36M/Y140S/Y91M)
Assay type: binding
quantity-kind: Normalized average relative binding affinity (ARB), HLA B*5802
Numbers only.

> print(dat)
            sequence.text  endpoint.value
 1  XDXXXXXXX [3064.0023]           0.030
 2  XXCXXXXXX [3064.0042]            0.37
 3  XKXXXXXXX [3064.0029]           0.045
 4  XCXXXXXXX [3064.0022]           0.051
 5  XXXDXXXXX [3064.0063]           0.069
 6  XAXXXXXXX [3064.0021]           0.035
 7  XXEXXXXXX [3064.0044]           0.049
 8  XWXXXXXXX [3064.0039]           0.098
 9  KXXXXXXXX [3064.0009]             1.0
10  XXKXXXXXX [3064.0049]           0.081

List Normalized average relative binding affinity (ARB), HLA B*5802 for every entry below, keeping the order given.
1. XXLXXXXXX [3064.0050]
2. XXTXXXXXX [3064.0057]
3. VXXXXXXXX [3064.0018]
4. XXPXXXXXX [3064.0053]
5. XIXXXXXXX [3064.0028]
6. XXMXXXXXX [3064.0051]

1. 0.59
2. 0.16
3. 0.21
4. 0.047
5. 0.11
6. 0.57

---

Provide the reported Normalized average relative binding affinity (ARB), HLA B*1503 of each item.
Target: HLA B*1503 (Homo sapiens, UniProt P01889, A329T/A93T/A95T/C349S/D201E/D98Y/E187L/E204Q/K202T/N87E/Q94N/R155S/R180L/S121R/S35A/V306I/V36M/Y140S/Y91S)
Assay: biochemical
Type: binding
Give bare numbers.

Lab note: each sequence below needs its Normalized average relative binding affinity (ARB), HLA B*1503 filled in.
1. DXXXXXXXX [3064.0003]
2. XXIXXXXXX [3064.0048]
3. XXDXXXXXX [3064.0043]

1. 0.016
2. 0.17
3. 0.032

The following sequences each have a reported value; give each one's Normalized average relative binding affinity (ARB), HLA B*1503.
1. XXTXXXXXX [3064.0057]
2. QXXXXXXXX [3064.0014]
3. CXXXXXXXX [3064.0002]
4. WXXXXXXXX [3064.0019]
5. XXPXXXXXX [3064.0053]
6. XNXXXXXXX [3064.0032]
7. XXYXXXXXX [3064.0060]

[0.23, 0.074, 0.20, 0.27, 0.058, 0.032, 0.44]

Provide reported Normalized average relative binding affinity (ARB), HLA B*1503 for each item, in the same order as listed.
1. XAXXXXXXX [3064.0021]
2. GXXXXXXXX [3064.0006]

[0.13, 0.063]

For each of the items listed, what is its Normalized average relative binding affinity (ARB), HLA B*1503?
1. YXXXXXXXX [3064.0020]
2. XIXXXXXXX [3064.0028]

1: 0.34; 2: 0.026
